Tested on: Tau phosphorylation at Ser396 (pSer396)
measurement-description: Tau phosphorylation assay (pSer396 ELISA / western blot) in SH-SY5Y cells;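 further: EC50 for reduction of Tau pSer396 in lysed cells, measured by colorimetric ELISA or chemiluminescent western blot, both using the same pSer396 antibody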
Assay type: cell-based, human
condition-notes: Homo sapiens; SH-SY5Y cells, overnight (16-18 h) exposure; read-out: pSer396 Tau EC50
Label 1.0 when EC50 is strictly below 700 nM; otherwise label 0.0.

Below, 3 molecules whose answers are already recorded.
test-smiles	class-assignment
CN(CC(=O)Nc1cc2cc(-c3cnco3)ccc2cn1)C1CCC1	0.0
C[C@H]1CN(C)CCN1CC(=O)Nc1cc2cc(-c3cnn(C)c3)ccc2cn1	0.0
O=C(Nc1cc2cc(-c3cnc4n3CCNC4)ccc2cn1)C1CC1	1.0

Shift focus to the following entry.
# TODO verify EC50 < 700 nM strictly for this molecule: Cn1cc(-c2ccc3cnc(NC(=O)C4CCN(Cc5ncccn5)CC4)cc3c2)cn1
0.0

Data origin, for the record: patent US10287267B2
